test system: BT-549; assay: Cytotoxicity against human BT549 cells assessed as cell growth at 0.1 uM after 48 hrs by sulforhodamine B assay relative to control; format: functional; settings: BT-549, 48 h, read-out: Activity
METRIC_NAME: growth at 0.1 µM (%)
All answers are understood in %, so give the number only.

Some solved entries appear below for comparison.
{"columns": ["MOL", "METRIC_NAME", "READOUT_NUMBER"],
 "data": [
  ["COc1ccc(-c2cc(/C=C/C(=O)c3ccc(OC)c(OC)c3)[nH]n2)cc1", "growth at 0.1 µM", 105],
  ["COc1ccc(-c2cc(/C=C/C(=O)c3ccc(N)cc3)[nH]n2)cc1", "growth at 0.1 µM", 96]
]}

Suppose we examine the compound COc1cc(-c2cc(/C=C/C(=O)c3ccc(Cl)c(Cl)c3)[nH]n2)cc(OC)c1OC ; what growth at 0.1 µM value has been reported?
95

Suppose we examine the compound COc1cc(-c2cc(/C=C/C(=O)c3ccc(F)c(F)c3)[nH]n2)cc(OC)c1OC ; what growth at 0.1 µM value has been reported?
105

* * *

tested on: U-251; test: Cytotoxicity against human U251 cells assessed as growth inhibition after 48 hrs by sulforhodamine B assay; type: functional; settings: U-251, 48 h
METRIC_NAME: GI50 (nM)
All answers are understood in nM, so give the number only.

{"columns": ["MOL", "MEASURED_TARGET", "GI50 (nM)"],
 "data": [
  ["COc1ccc(-c2cc(/C=C/C(=O)c3ccc(OC)c(OC)c3)[nH]n2)cc1", "U-251", 1110],
  ["COc1cc(C(=O)/C=C/c2cc(-c3ccc4c(c3)OCO4)n[nH]2)cc(OC)c1OC", "U-251", 1210],
  ["COc1ccc(-c2cc(/C=C/C(=O)c3ccc(N)cc3)[nH]n2)cc1OC", "U-251", 1740]
]}

Suppose we examine the compound COc1ccc(-c2cc(/C=C/C(=O)c3cc(OC)c(OC)c(OC)c3)[nH]n2)cc1OC ; what GI50 value has been reported?
1240

* * *

tested on: RPMI-8226; assay: Cytotoxicity against human RPMI8226 cells assessed as cell growth at 0.01 uM after 48 hrs by sulforhodamine B assay relative to control; format: functional; conditions: RPMI-8226, 48 h, read-out: Activity
METRIC_NAME: growth at 0.01 µM (%)
All answers are understood in %, so give the number only.

Some solved entries appear below for comparison.
{"columns": ["MOL", "UNIT", "READOUT_NUMBER"],
 "data": [
  ["COc1ccc(C(=O)/C=C/c2cc(-c3ccc(OC)c(OC)c3)n[nH]2)cc1OC", "%", 98],
  ["COc1cc2c(cc1OC)C(=O)/C(=C/c1cc(-c3ccc4c(c3)OCO4)n[nH]1)C2", "%", 100],
  ["COc1cc(-c2cc(/C=C/C(=O)c3ccc(N)cc3)[nH]n2)cc(OC)c1OC", "%", 98],
  ["COc1ccc(C(=O)/C=C/c2cc(-c3ccc4c(c3)OCO4)n[nH]2)cc1OC", "%", 99]
]}

Suppose we examine the compound COc1ccc(-c2cc(/C=C/C(=O)c3cc(OC)c(OC)c(OC)c3)[nH]n2)cc1OC ; what growth at 0.01 µM value has been reported?
97

Suppose we examine the compound COc1ccc(-c2cc(/C=C/C(=O)c3ccc(OC)c(OC)c3)[nH]n2)cc1 ; what growth at 0.01 µM value has been reported?
106

Suppose we examine the compound COc1ccc(C(=O)/C=C/c2cc(-c3cc(OC)c(OC)c(OC)c3)n[nH]2)cc1OC ; what growth at 0.01 µM value has been reported?
94
